# Experimental Target: UniProt:Q13639
# Sequence (Q13639 whole entry): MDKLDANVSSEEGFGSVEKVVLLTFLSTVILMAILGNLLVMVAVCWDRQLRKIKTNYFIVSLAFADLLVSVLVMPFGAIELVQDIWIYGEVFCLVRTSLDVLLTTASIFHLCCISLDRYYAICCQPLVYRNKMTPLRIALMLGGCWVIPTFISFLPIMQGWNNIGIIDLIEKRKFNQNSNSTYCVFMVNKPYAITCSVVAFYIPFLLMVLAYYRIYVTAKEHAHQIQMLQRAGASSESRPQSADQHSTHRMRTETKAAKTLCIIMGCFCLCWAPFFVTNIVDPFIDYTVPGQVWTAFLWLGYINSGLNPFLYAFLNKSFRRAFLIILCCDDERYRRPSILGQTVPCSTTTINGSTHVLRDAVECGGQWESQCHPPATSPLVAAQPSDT
Measured Metric: Ki

-- ask Entry NCCc1c[nH]c2ccc(C(N)=O)cc12 [[3H]-5-carboxamidotryptamine] needs its Ki filled in; supply it.
-- reply > 10 µM

FYI, the data here is from BindingDB's records for doi:10.1007/s002100000299.
